All figures here come from ChEMBL document CHEMBL1201862.

# maps each entry to its GI50
tested on: TK-10; assay: NCI tumour cell line growth inhibition, 48 h
Calls of active or inactive are those of the source. No stated cut-off is given here; in the data, active = GI50 up to about 1.1 µM and inactive = higher.

Worked set:
NS(=O)(=O)c1ccc(Nc2c3ccccc3nc3c(C(=O)N4CCN(CCO)CC4)cccc23)cc1
> 100 µM (inactive)
O=S(=O)(O)c1ccc(Nc2ccnc3cc(Cl)ccc23)cc1
> 100 µM (inactive)
CC(=O)COC(=O)CC(C)=O
> 100 µM (inactive)

Let's switch to this molecule now.
Lab note: record GI50 of S=P(N1CCCC1)(N1CC1)N1CC1 tested on TK-10.
> 100 µM (inactive)

====

system: IGROV-1; assay: NCI tumour cell line growth inhibition, 48 h
Active and inactive are the calls of the source. Rule as the data show it: active = GI50 up to about 1.1 µM and inactive = higher.
Parameter: GI50. Scope: all listed entries.

Example cases with answers are listed next.
COc1ccc(Cn2c3c(cc(OS(=O)(=O)C(F)(F)F)c2=O)Cc2ccccc2-3)cc1
22.5 µM (inactive)
OCC1NCC(O)C(O)C1O (stereo not given)
> 100 µM (inactive)
COc1cc(NCC2COc3c(ccc(OC)c3OC)C2=O)c([N+](=O)[O-])cc1OC (stereo not given)
> 100 µM (inactive)
O=C1OC(=O)C2=C1C(c1cccs1)C=C(c1cccnc1)N2c1ccncc1 (stereo not given)
13.8 µM (inactive)
O=C(Nc1cc(Cl)ccc1Cl)c1cc2ccccc2oc1=O
> 100 µM (inactive)
O=P1(O)C=CC2(CCCC2)O1
> 100 µM (inactive)

Provide measured GI50 value, entry: C=C(C)C(=O)OC1CC2(C)OC(=CC2=O)C(C)CC2OC(=O)C(=C)C12 (stereo not given)
8.85 µM (inactive)

Indicate its recorded GI50; the compound in question is O=S(=O)(O)c1ccc(Nc2ccnc3cc(Cl)ccc23)cc1
> 100 µM (inactive)

Check the records and state GI50 for CC[C@@H](/C=C\CCC1(C[C@@H](N)CCC=C(C)C)OCCO1)O[Si](C(C)C)(C(C)C)C(C)C
15.8 µM (inactive)

Return GI50 for the following compound: CNc1ccc2nc(-c3ccc(OC(=O)N(C)C)cc3)cn2c1
17.9 µM (inactive)
